- System: PPARa:RXRa (NR concentration 270 nM, RXRa partner concentration 90 nM)
- PROTOCOL NOTES: PBM binding z-score (relative to random genomic background probes); higher = stronger binding; sequences stand for … in GC…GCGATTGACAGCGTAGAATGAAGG
// PBM binding z-score lookup, one value per entry
READOUT TYPE: PBM binding z-score

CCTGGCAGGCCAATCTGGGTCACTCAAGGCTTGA 2.69
AGTCAAAGTTCGTCTAGGTAACGTAAGATATGCT 1.84
CGAACAAGGTCAGAACAGGACAGTGAAGGATGAT 3.91
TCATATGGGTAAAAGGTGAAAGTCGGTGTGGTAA 4.91
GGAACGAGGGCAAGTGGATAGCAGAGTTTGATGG 1.36
TATACAGGGTCAAAGGCCGGAGTACGAATGTCGA 6.26
CCTTAAGGGTCACTCCAGGTTATAGCATCGGAGT 5.33
GCGACTGGGGCAAAGCAGATTACCATAAGGTTGG 0.454
CCTACTGGGCCAAGGTCCTTGATCAGTCAAAGCA 0.607
ACTTACGGGTCAACGAGCTTATAGCACGCGTATA 5.49
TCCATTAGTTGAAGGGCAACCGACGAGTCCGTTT 1.18
TCTTTTAGTTGATTAGGGCAACCGAAACAGCGGA 1.45
